# if measured logP < 0.7: criterion met  # else: criterion not met

Completed entries (count: 5):
>  <Test Smiles>
CC(=O)CF

>  <Cat>
criterion met

$$$$
>  <Test Smiles>
CC(=O)Oc1cccc2cccnc12

>  <Cat>
criterion not met

$$$$
>  <Test Smiles>
CC(C)(C)C#N

>  <Cat>
criterion not met

$$$$
>  <Test Smiles>
O=Nc1c(O)ccc2ccccc12

>  <Cat>
criterion not met

$$$$
>  <Test Smiles>
C=C(Cl)Cl

>  <Cat>
criterion not met

$$$$

Exam item: State whether 0.7 exceeds logP recorded for CC(=O)Nc1ccc(O)cc1C .
Marked response: criterion met

Exam item: Now the molecule CN(C)c1ccncc1
Marked response: criterion not met

###

Assay Endpoint: logP
Give bare numbers.

Illustrative cases are given below, each with its answer.
>  <Molecule>
C1CCc2nnnn2CC1

>  <logP>
0.14

$$$$
>  <Molecule>
O=C(O)c1cccc(Br)c1

>  <logP>
2.87

$$$$
>  <Molecule>
NS(=O)(=O)c1cccc2cccnc12

>  <logP>
0.42

$$$$
>  <Molecule>
CC(=O)c1cn(C)c2ccccc12

>  <logP>
1.95

$$$$
>  <Molecule>
C=CCC1(C(C)C)C(=O)NC(=O)NC1=O

>  <logP>
1.15

$$$$

Go through the items and report each one's logP.
1. COC(=O)Cc1ccsc1
2. CCOP(=S)(NC(C)C)Oc1ccccc1C(=O)OC(C)C (stereo not drawn)
3. O=C(O)CCC(=O)c1ccc(-c2ccccc2)cc1
4. COc1ccc(N2C(=O)CCC2=O)cc1

Marked response:
1.46
4.12
3.2
0.15

###

Consider the following compounds; for each one, report its logP.

Illustrative cases are given below, each with its answer.
>  <Test Smiles>
CCOCCN(CCOCC)N=O

>  <Assay Endpoint>
logP

>  <Observed Measurement>
0.79

$$$$
>  <Test Smiles>
COc1ccccc1NC(C)=O

>  <Assay Endpoint>
logP

>  <Observed Measurement>
0.67

$$$$
>  <Test Smiles>
NCCc1ccccc1

>  <Assay Endpoint>
logP

>  <Observed Measurement>
1.41

$$$$

Go through the items and report each one's logP.
1. Cc1cccc2cccnc12
2. COP(=S)(OC)Oc1ccc([N+](=O)[O-])c(Cl)c1
3. CNCCN(C)C
4. CN(O)C(N)=O
5. C1=Cc2ccc3c4c(ccc(c24)C1)-c1ccccc1-3

Marked response:
2.6
3.45
-0.2
-0.46
5.78

###

Assay Endpoint: logP

>  <Test Smiles>
CCOCCOCC

>  <Assay Endpoint>
logP

>  <Observed Measurement>
0.66

$$$$
>  <Test Smiles>
Clc1ccc(Cl)c(Cl)n1

>  <Assay Endpoint>
logP

>  <Observed Measurement>
2.77

$$$$

Go through the items and report each one's logP.
1. CCCCC[N+](=O)[O-]
2. c1ccn2cccc2c1

Marked response:
1. 2.01
2. 2.49
